Source listed as patent US20200347144A1.

The entries below come with measured OD450 nm values attached.
Biological target: T1, hFc-tagged human 4-1BB extracellular domain protein (4-1BB-hFc) (human, UniProt Q07011 24-186, limits assumed)
T1 construct: also called immunogen A; 4-1BB^ECD-hFc; not shown: human IgG Fc fragment (hFc) of the pCpC vector
Test: ELISA, coated human 4-1BB-hFc; Ab 0.0001 ug/ml
Note: unit OD450 nm is implicit; provide only the numeric part.

For record 15G10D4 (antibody, V domains shown) VH: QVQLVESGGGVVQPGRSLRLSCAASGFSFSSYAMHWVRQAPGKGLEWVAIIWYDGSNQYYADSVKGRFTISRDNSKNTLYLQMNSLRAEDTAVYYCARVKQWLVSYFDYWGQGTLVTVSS VL: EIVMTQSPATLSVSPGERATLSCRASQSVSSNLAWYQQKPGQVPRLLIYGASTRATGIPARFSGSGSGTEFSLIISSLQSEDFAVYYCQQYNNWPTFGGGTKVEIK the listed OD450 nm is 0.17

For record 119B6G5 (antibody, V domains shown) VH: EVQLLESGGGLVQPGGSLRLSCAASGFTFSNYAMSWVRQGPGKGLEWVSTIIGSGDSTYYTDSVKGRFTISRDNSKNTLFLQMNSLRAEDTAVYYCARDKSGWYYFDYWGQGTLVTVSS VL: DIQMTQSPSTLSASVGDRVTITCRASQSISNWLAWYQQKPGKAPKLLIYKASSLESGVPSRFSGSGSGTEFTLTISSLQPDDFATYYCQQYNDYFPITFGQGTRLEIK the listed OD450 nm is 0.07

For record 170D7F2 (antibody, V domains shown) VH: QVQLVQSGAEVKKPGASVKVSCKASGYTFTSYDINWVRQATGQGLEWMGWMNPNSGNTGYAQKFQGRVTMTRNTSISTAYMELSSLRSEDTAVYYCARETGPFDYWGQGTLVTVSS VL: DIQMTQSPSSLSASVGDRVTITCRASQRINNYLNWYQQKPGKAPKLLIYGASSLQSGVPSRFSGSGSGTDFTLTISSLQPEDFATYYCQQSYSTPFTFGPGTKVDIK the listed OD450 nm is 0.13

For record 52F4G2 (antibody, V domains shown) VH: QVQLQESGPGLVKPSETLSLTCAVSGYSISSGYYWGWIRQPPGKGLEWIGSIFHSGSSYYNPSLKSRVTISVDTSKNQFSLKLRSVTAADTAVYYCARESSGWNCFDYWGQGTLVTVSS VL: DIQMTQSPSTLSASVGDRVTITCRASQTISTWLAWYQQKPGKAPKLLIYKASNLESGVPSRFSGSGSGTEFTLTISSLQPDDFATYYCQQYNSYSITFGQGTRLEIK the listed OD450 nm is 0.26
